# target_or_system: 5-HT2B Receptors (Homo sapiens, UniProt P41595)
# Construct: expressed in transfected cells
# Sequence (P41595 whole entry): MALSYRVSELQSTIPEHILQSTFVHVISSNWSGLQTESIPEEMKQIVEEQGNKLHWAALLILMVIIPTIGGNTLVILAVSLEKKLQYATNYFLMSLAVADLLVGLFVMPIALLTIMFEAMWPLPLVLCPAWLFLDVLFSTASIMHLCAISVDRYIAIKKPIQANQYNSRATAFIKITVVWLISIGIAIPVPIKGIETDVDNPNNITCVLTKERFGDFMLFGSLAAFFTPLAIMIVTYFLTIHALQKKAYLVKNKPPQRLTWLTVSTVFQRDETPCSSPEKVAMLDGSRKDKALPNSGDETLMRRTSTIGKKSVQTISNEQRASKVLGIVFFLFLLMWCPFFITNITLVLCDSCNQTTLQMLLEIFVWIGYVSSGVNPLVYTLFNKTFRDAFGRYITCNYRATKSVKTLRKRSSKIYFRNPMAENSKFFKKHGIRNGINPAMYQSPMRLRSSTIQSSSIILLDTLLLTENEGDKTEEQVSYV
# assay_method_text: Antagonist activity assay (FLIPR, CHO-K1/5-HT2B stable cell line)
# Format: cell-based
# assay_setup: 1 μM compound, CHO-K1/5-HT2B cells stimulated with 12 nM (EC80) 5-HT
experimental_endpoint: inhibition at 1 µM (%)

Cc1cc(C)cc(NC2=NC(N)=NC3(CCCCC3)N2)c1: 69.1
COc1ccc(OC)c(NC2=NC(N)=NC3(CCCCC3)N2)c1: 81.1
NC1=NC2(CCCCC2)NC(Nc2cccc(Br)c2)=N1 [3-e2]: 97.4

* * *

# target_or_system: 5-HT2B Receptors (Homo sapiens, UniProt P41595)
# Construct: expressed in transfected cells
# assay_method_text: Antagonist activity assay (FLIPR, CHO-K1/5-HT2B stable cell line)
# Format: cell-based
# assay_setup: 1 μM compound, CHO-K1/5-HT2B cells stimulated with 12 nM (EC80) 5-HT
// values below are reported inhibition at 1 µM

Look over these answered cases.
CC1(C)N=C(N)N=C(Nc2ccc(I)cc2)N1: < 50%
COc1ccccc1NC1=NC(N)=NC2(CCCCC2)N1: < 50%
CCOC(=O)c1cccc(NC2=NC(N)=NC3(CCCCC3)N2)c1: 107%
CN(C)c1ccc(NC2=NC(N)=NC3(CCCCC3)N2)cc1: < 50%
CCCOC(=O)c1cccc(NC2=NC(N)=NC3(CCCCC3)N2)c1: 110%

Proceeding to the next compound to report its inhibition at 1 µM.
Entry under review: CC1(C)N=C(N)N=C(Nc2ccccc2)N1 . Reported inhibition at 1 µM? < 50%

* * *

# target_or_system: 5-HT2B Receptors (Homo sapiens)
# Construct: expressed in transfected cells
# assay_method_text: Antagonist activity assay (FLIPR, CHO-K1/5-HT2B stable cell line)
# Assay type: cell-based
# assay_setup: 1 μM compound, CHO-K1/5-HT2B cells stimulated with 12 nM (EC80) 5-HT
experimental_endpoint: inhibition at 1 µM (%)

NC1=NC2(CCCCC2)NC(Nc2cccc(F)c2)=N1: 90.9
CCOC(=O)c1cc(NC2=NC(N)=NC3(CCCCC3)N2)ccc1C: 108
NC1=NC2(CCCCC2)NC(Nc2ccc(Cl)cc2)=N1: 57.2
CC1(C)N=C(N)N=C(Nc2ccc(Cl)cc2)N1: 93.1
Cc1ccc(NC2=NC(N)=NC3(CCCCC3)N2)cc1C: 95.7
CCOC(=O)c1cccc(NC2=NC(N(C)C)=NC3(CCCCC3)N2)c1: 91.8
CCOC(=O)c1cccc(NC2=NC(NC)=NC3(CCCCC3)N2)c1: 108
CCOC(=O)c1ccc(NC2=NC(N)=NC3(CCCCC3)N2)cc1: 109
NC1=NC2(CCCCC2)NC(Nc2cccc(I)c2)=N1: 102

* * *

This section presents compounds with their documented inhibition at 1 µM values.
# target_or_system: 5-HT2B Receptors (Homo sapiens, UniProt P41595)
# Construct: expressed in transfected cells
# assay_method_text: Antagonist activity assay (FLIPR, CHO-K1/5-HT2B stable cell line)
# Assay type: cell-based
# assay_setup: 1 μM compound, CHO-K1/5-HT2B cells stimulated with 12 nM (EC80) 5-HT

COc1cccc(NC2=NC(N)=NC3(CCCC3)N2)c1: 63.4%
CCOc1ccc(NC2=NC(N)=NC(C)(C)N2)cc1: < 50%
CC1(C)N=C(N)N=C(Nc2cccc(Br)c2)N1: 75.9%
COc1ccccc1NC1=NC(N)=NC2(CCCC2)N1: < 50%
CCN(CC)C(=O)c1cccc(NC2=NC(N)=NC3(CCCCC3)N2)c1: < 50%

Now consider the entry below.
What inhibition at 1 µM appears in the records for this compound with 5-HT2B Receptors (Homo sapiens, UniProt P41595)? Cc1ccccc1NC1=NC(N)=NC2(CCCCC2)N1 < 50%
